Test: Dissociation constant (pKa) was determined by spectrophotometric method
Assay type: physicochemical
Entries and their measured pKa follow.
Number, no unit, nothing else.

{"columns": ["Smiles Data", "pKa"],
 "data": [
  ["NCCc1c[nH]c2c1C(=O)C(=O)C=C2O", 5.6]
]}

Please look up its pKa: NCCc1c[nH]c2c1C(=O)C(O)=C(C1=C(O)c3[nH]cc(CCN)c3C(=O)C1=O)C2=O
6.5

* * *

Experiment: Dissociation constant (pKa) was reported after potentiometric titration with 0.2 mM KOH
Assay type: physicochemical
Endpoint Label: pKa
The answer should be a number; do not append a unit.

Reported pKa for NCCc1c[nH]c2c(O)cc(O)cc12 : what is it?
4.8
